Provide the reported inhibition of each item.
- STUDY_TARGET: SUMO-conjugating enzyme UBC9 (Homo sapiens) (UniProt P63279)
- Sequence (P63279 whole entry, looked up): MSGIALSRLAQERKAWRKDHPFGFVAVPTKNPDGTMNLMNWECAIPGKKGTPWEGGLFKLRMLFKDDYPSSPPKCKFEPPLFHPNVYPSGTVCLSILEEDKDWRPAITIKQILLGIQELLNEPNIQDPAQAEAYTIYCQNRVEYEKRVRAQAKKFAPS
- ASSAY: blockers of UBC9-mediated SUMO conjugation – biochemical, AlphaScreen, SUMOylation inhibitor project, confirmation (AID 2018)
- MEASUREMENT_SETUP: AlphaScreen in vitro SUMOylation assay; at 35 µM; stronger effect = higher value
Hit rate of the full screen: of about 1,200 compounds, about 600 (50%) were called active. The set was probably picked from earlier hits. The list shows a part of the results. Results with a measured potency or affinity are listed apart.
One number for each entry, in %.

// solved cases for inhibition follow
| COMPOUND | ENDPOINT_VALUE |
| --- | --- |
| O=C1C=C(O)c2cccc(O)c2C1=O | 39.2 |
| Oc1ccc(/C=N/Nc2cc(N3CCCC3)nc(N3CCCC3)n2)cc1O | 102 |
| COc1ccccc1Oc1c(C)oc2cc(OC(=O)c3ccco3)ccc2c1=O | 18.7 |
| CCOc1cc(/C=C2/C(=O)N(c3ccccc3)N=C2C)ccc1OC(=O)c1ccco1 | 73.7 |
| O=c1cc2c(=O)oc3cc(O)c(O)oc3c2c(O)c1O | 89.8 |
| Cc1ccc(S(=O)(=O)C(C#N)c2nc3ccccc3nc2N2CC(C)OC(C)C2)cc1C (configuration not stated) | 22.8 |

// for each compound in input: emit inhibition
1. N#CC(c1nc2ccccc2nc1N1CCCC1)S(=O)(=O)c1cccs1 (configuration not stated)
2. N#CC(c1nc2ccccc2nc1N1CCCC1)S(=O)(=O)c1ccccc1 (configuration not stated)
3. O=C1C=C(O)CC(c2ccco2)C1 (configuration not stated)

1. 37.3
2. 66.7
3. 47.7

====

- STUDY_TARGET: SUMO-conjugating enzyme UBC9 (Homo sapiens) (UniProt P63279)
- ASSAY: blockers of UBC9-mediated SUMO conjugation – biochemical, AlphaScreen, SUMOylation inhibitor project, confirmation (AID 2018)
- MEASUREMENT_SETUP: AlphaScreen in vitro SUMOylation assay; at 35 µM
Among all 1,200 compounds or so, about 600 (50%) were called active. Rule as the data show it: active = inhibition above about 42%; inactive = the rest. So high a share suggests a set chosen from earlier hits. The list shows a part of the results. Measured potencies and affinities stand elsewhere.
Response enum: true = active, false = inactive

| MOLECULE | CLASS |
| --- | --- |
| Cc1[nH]n(-c2ccccc2)c(=O)c1C(C[N+](=O)[O-])c1ccc(Br)cc1 (configuration not stated) | true |
| O=C(NC(=S)Nc1cccc2c(O)cccc12)c1cccc(Br)c1 | true |
| COc1cccc(C(c2c(C)[nH]n(-c3ccccc3)c2=O)c2c(C)[nH]n(-c3ccccc3)c2=O)c1OC | true |
| Fc1ccc(NC(=S)Nc2ccc3nccnc3c2)cc1 | false |
| Cc1ccc(C)c(-c2nc3ccc(N)cc3[nH]2)c1 | false |
| N#Cc1c(N)n(-c2cccc(C(=O)O)c2)c2nc3ccccc3nc12 | true |
| Cc1c(C)c2cc(Cl)c(O)c(CN3CCN(C)CC3)c2oc1=O | false |
| O=c1c(-c2ccccc2)coc2c(CN3CCCC3)c(O)ccc12 | false |
| C=CCn1c(NC(=O)c2ccc(Br)o2)c(S(=O)(=O)c2ccccc2)c2nc3ccccc3nc21 | true |
| COc1ccc(CNC(=O)c2c(N)n(CCCN3CCOCC3)c3nc4ccccc4nc23)cc1 | false |

Called result for "COc1ccccc1Oc1c(C)oc2c(CN3CCN(C)CC3)c(O)ccc2c1=O" false

What do you have for "CC(C)(C)c1cnnn1-c1cccc([N+](=O)[O-])c1" ? false

What do you have for "Cc1ccc(C)c(S(=O)(=O)c2c(N)n(/N=C/c3ccco3)c3nc4ccccc4nc23)c1" ? false

What do you have for "CCOc1cc2c(C#N)c(N3CCOCC3)nc(N)c2c(N)n1" ? true

What do you have for CCOc1ccc(C2C=C(c3ccccc3)Nc3ncnn32)cc1 (configuration not stated) ? false

What do you have for "Cc1ccc(S(=O)(=O)c2c(N)n(/N=C/c3ccco3)c3nc4ccccc4nc23)cc1C" ? false

What do you have for "COC1=C(Nc2ccccc2)C(=O)c2ccccc2C1=O" ? true

What do you have for "C=CCn1c(N)c(C(=O)OC(C)(C)C)c2nc3ccccc3nc21" ? false

What do you have for OC(COc1ccccc1)CSc1ncn[nH]1 (configuration not stated) ? false

What do you have for "COc1ccc(CN2C(=O)Cc3c2nc(N)c2c(N)nc(N4CCOCC4)c(C#N)c32)cc1" ? false

What do you have for "N#Cc1c(N)n(CCOC(=O)c2ccc(Cl)cc2)c2nc3ccccc3nc12" ? false

What do you have for "CCCC(=O)NC(=S)Nc1cccc2c(O)cccc12" ? false
